These entries and their values trace back to ChEMBL document CHEMBL1201862.

Test system: SF-539
test: NCI tumour cell line growth inhibition, 48 h
Calls of active or inactive are those of the source. Cut-off read from the data, not from the text of the source: active = GI50 up to about 1.1 µM and inactive = higher.
Your response should consist of one outcome taken from active, inactive

Examples from the recorded data:
{"molecule": "CCSCCC(N)C(=O)O (centres undefined)", "category": "inactive"}
{"molecule": "CC1(C)CCCCCCC2CC2CCCCCC(C)(C)C1=O (centres undefined)", "category": "inactive"}

Ask | Given COc1cc2c(c(OC)c1OC)C(=O)[C@@H]1[C@H]2N1C(N)=O , state the outcome it received in this test.
Reply | inactive

Ask | Given O=C1Cc2nc(CO)c(CO)c(CO)c2CO1 , state the outcome it received in this test.
Reply | inactive

Ask | Given O=c1[nH]c2c(O)cccc2c2cc3c(c(O)c12)OCO3 , state the outcome it received in this test.
Reply | inactive

Ask | Given O=C(O)/C=C(/CC(=O)O)C(=O)O , state the outcome it received in this test.
Reply | inactive

Ask | Given COC1=C(N2CC2)C(=O)c2nc3n(c2C1=O)CCC3 , state the outcome it received in this test.
Reply | inactive

Ask | Given O=C1OCC2=C1C(c1ccc(Cl)cc1)c1cc3c(cc1O2)OCO3 (centres undefined) , state the outcome it received in this test.
Reply | inactive

Ask | Given Nc1nc(=O)[nH]c2c1cnn2Cc1ccccc1 , state the outcome it received in this test.
Reply | inactive

Ask | Given COc1ccc(C(=C2C(=O)OC(=O)C2=C(C)C)c2ccc(OC)cc2)cc1 , state the outcome it received in this test.
Reply | inactive

Ask | Given C=C1CC[C@@H](CCC2CCC3(OC2)O[C@]2(O)CC[C@@]3(C)OC2(C)C)C(C)(C)[C@H]1C/C=C1\CCOC1=O (some centres undefined) , state the outcome it received in this test.
Reply | inactive

Ask | Given COC(=O)C[C@](O)(CCC(C)(C)O)C(=O)O[C@@H]1C(OC)=C[C@]23CCCN2CCc2cc4c(cc2[C@H]13)OCO4 , state the outcome it received in this test.
Reply | active

Ask | Given CC(Oc1ccc(Cl)cc1Cl)C(=O)NN1C(=O)CSC1c1ccccc1 (centres undefined) , state the outcome it received in this test.
Reply | inactive

Ask | Given CCOc1ccccc1N1CSc2nnc(-c3ccccc3)n2C1 , state the outcome it received in this test.
Reply | inactive

* * *

System: NCI-H522
test: NCI tumour cell line growth inhibition, 48 h
The source made the active and inactive calls. Rule as the data show it: active = GI50 up to about 1.1 µM and inactive = higher.
endpoint.name: GI50

Known results for compounds:
{"compound": "NC1CC(=O)c2csc(Br)c21 (centres undefined)", "endpoint.result": "2.05 µM (inactive)"}
{"compound": "Cc1cc2c(c(C(N)=O)c1C)-c1cccc(F)c1C2=O", "endpoint.result": "41.2 µM (inactive)"}
{"compound": "CC(=O)OC12c3ccccc3-c3ccccc3C1C(C(=O)O)C2(Cl)C(=O)O (centres undefined)", "endpoint.result": "> 10 µM (inactive)"}
{"compound": "COc1ccc(-c2coc3c4c(ccc3c2=O)OCO4)cc1OC", "endpoint.result": "56.9 µM (inactive)"}
{"compound": "NCCN1C(=O)c2ccccc2C1(O)c1ccc(Cl)cc1 (centres undefined)", "endpoint.result": "14.2 µM (inactive)"}
{"compound": "O=C(OCc1ccccc1[N+](=O)[O-])N1c2ccccc2[C@@]23O[C@]24CCC[C@H]3C#C/C=C\\C#C[C@H]14", "endpoint.result": "78 µM (inactive)"}
{"compound": "COc1ccc2[nH]c3c([N+](=O)[O-])ccc(Cl)c3c(=O)c2c1", "endpoint.result": "19 µM (inactive)"}
{"compound": "COC(=O)C1=C(OC(=O)/C(=C/c2ccc(Cl)cc2)c2ccccc2)C(C(=O)OC)[C@@]2(O)[C@@H](C(=O)OC)[C@H](C)C[C@@H]1[C@@H]2C(=O)OC (some centres undefined)", "endpoint.result": "6 µM (inactive)"}
{"compound": "CCOC(=O)C(C(=S)Nc1ccccc1)c1nn2c(=O)cc(C)nc2s1 (centres undefined)", "endpoint.result": "22.3 µM (inactive)"}
{"compound": "O=c1oc(C(C(F)(F)F)C(F)(F)F)nc2ccccc12", "endpoint.result": "> 100 µM (inactive)"}

Ask | For the compound COC(=O)c1ccc2c(O)c(O)ccc2c1 , what GI50 is on record?
Reply | 15.2 µM (inactive)

Ask | For the compound O=C(N/C(=C\c1ccccc1Cl)c1nc2ccccc2[nH]1)c1ccccc1 , what GI50 is on record?
Reply | 22.8 µM (inactive)
